Biological target: Trypsin, Iodination grade, from human pancreas (human, UniProt P07477 24-247)
Assay: cell-based or functional assay
RECORDED ENDPOINT: % inhibition at 100 µM
Kindly format the answer as number then unit.

Any idea what % inhibition at 100 µM was measured for FCTKSDPPICS (HELM PEPTIDE1{F.C.T.K.S.D.P.P.I.C.S.[dA].D}$PEPTIDE1,PEPTIDE1,2:R3-10:R3|PEPTIDE1,PEPTIDE1,1:R1-13:R2$$$V2.0; SMILES CC[C@H](C)[C@@H]1NC(=O)[C@@H]2CCCN2C(=O)[C@@H]2CCCN2C(=O)[C@H](CC(=O)O)NC(=O)[C@H](CO)NC(=O)[C@H](CCCCN)NC(=O)[C@H]([C@@H](C)O)NC(=O)[C@@H]2CSSC[C@H](NC1=O)C(=O)N[C@@H](CO)C(=O)N[C@H](C)C(=O)N[C@@H](CC(=O)O)C(=O)N[C@@H](Cc1ccccc1)C(=O)N2) [Example 68] ?
84.2%
